Consider the following compounds; for each one, report its IC50.
- Target Desc: kinases (kinome) (Homo sapiens)
- Construct: determined in kinobeads assays with mass spectrometry detection of kinases as described previously; endogenous in cells
- Sequence (O94768 1-372): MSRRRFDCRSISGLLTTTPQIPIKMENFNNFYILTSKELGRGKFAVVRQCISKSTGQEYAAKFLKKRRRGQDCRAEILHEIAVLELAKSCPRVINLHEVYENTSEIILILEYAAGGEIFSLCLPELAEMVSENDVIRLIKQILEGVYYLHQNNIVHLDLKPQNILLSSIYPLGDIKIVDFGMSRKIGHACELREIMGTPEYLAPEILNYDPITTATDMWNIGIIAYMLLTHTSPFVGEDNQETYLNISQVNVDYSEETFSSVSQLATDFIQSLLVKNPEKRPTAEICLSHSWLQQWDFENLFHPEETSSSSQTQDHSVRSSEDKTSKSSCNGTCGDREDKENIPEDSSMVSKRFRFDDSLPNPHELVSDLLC
- Test Details: kinobeads assay with mass spectrometry detection of kinases (kinase selectivity profile)
- Run Parameters: DRAK2 (CAMK), IPI00916930

C[C@H]1COCCN1c1nc(-c2ccc(NC(=O)NC3CC3)cc2)cc(-c2ccccc2S(C)(=O)=O)n1	> 10 µM

Please give IC50 for each item listed below.
1. C[C@H]1COCCN1c1nc(-c2ccc(NC(=O)NC3CC3)cc2)cc(-c2cc(F)ccc2S(C)(=O)=O)n1
2. C[C@H]1COCCN1c1nc(-c2ccc(NC(=O)NC3CC3)cc2)cc(-c2cccnc2S(C)(=O)=O)n1

[out]
1. > 10 µM
2. > 10 µM

---

- Target Desc: kinases (kinome) (Homo sapiens, UniProt O96013)
- Construct: determined in kinobeads assays with mass spectrometry detection of kinases as described previously; endogenous in cells
- Sequence (O96013 whole entry): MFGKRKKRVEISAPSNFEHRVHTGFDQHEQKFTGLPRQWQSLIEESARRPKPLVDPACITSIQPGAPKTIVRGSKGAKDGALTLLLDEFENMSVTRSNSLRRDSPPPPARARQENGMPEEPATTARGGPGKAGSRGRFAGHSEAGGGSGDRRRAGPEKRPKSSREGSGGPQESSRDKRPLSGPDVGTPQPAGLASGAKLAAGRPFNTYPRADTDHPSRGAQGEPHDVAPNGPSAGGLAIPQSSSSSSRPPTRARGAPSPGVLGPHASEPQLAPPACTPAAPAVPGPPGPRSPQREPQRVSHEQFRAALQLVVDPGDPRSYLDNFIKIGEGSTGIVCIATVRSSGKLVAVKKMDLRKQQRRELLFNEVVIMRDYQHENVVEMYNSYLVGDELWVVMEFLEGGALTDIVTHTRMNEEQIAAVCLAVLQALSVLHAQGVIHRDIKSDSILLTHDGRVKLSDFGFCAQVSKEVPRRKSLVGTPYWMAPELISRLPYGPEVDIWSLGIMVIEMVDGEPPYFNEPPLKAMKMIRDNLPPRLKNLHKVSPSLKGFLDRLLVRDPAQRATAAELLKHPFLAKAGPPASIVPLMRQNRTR
- Test Details: kinobeads assay with mass spectrometry detection of kinases (kinase selectivity profile)
- Run Parameters: PAK4 (STE), IPI00014068
Provide the recorded IC50 for the entries that follow.

As a guide, the following entries are already answered.
C[C@H]1COCCN1c1nc(-c2ccc(NC(=O)NC3CC3)cc2)cc(-c2cccnc2S(C)(=O)=O)n1 [Example 46]	> 10 µM
C[C@H]1COCCN1c1nc(-c2ccc(NC(=O)NC3CC3)cc2)cc(-c2ccccc2S(C)(=O)=O)n1 [Example 4]	> 10 µM
CCNC(=O)Nc1ccc(-c2cc(-c3ccccc3C#N)nc(N3CCOC[C@@H]3C)n2)cc1 [Example 8]	> 10 µM
C[C@H]1COCCN1c1nc(-c2ccc(NC(=O)NC3CC3)cc2)cc(-c2cc(F)ccc2S(C)(=O)=O)n1 [Example 40]	> 10 µM
C[C@H]1COCCN1c1nc(-c2ccc(NC(=O)N[C@H]3CCC[C@@H]3O)cc2)cc(-c2cc(F)ccc2S(C)(=O)=O)n1 [Example 76]	> 10 µM

For each of the compounds below, note its IC50.
1. C[C@H]1COCCN1c1cc(-c2ccccn2)nc(-c2ccc(NC(=O)NCCO)cc2)n1 [Example 43]
2. C[C@H]1COCCN1c1cc(-c2ccccc2S(C)(=O)=O)nc(-c2ccc(NC(=O)NC3CC3)cc2)n1 [Example 6]

[out]
["> 10 µM", "> 10 µM"]

---

- Target Desc: kinases (kinome) (Homo sapiens)
- Construct: determined in kinobeads assays with mass spectrometry detection of kinases as described previously; endogenous in cells
- Test Details: kinobeads assay with mass spectrometry detection of kinases (kinase selectivity profile)
- Run Parameters: PIK3Cg (Lipid Kinase), IPI00292690
Provide the recorded IC50 for the entries that follow.

C[C@H]1COCCN1c1cc(-c2ccccn2)nc(-c2ccc(NC(=O)NCCO)cc2)n1	> 10 µM

// for each compound in input: emit IC50
1. C[C@H]1COCCN1c1nc(-c2ccc(NC(=O)NC3CC3)cc2)cc(-c2ccccc2S(C)(=O)=O)n1
2. C[C@H]1COCCN1c1nc(-c2ccc(NC(=O)NC3CC3)cc2)cc(-c2cc(F)ccc2S(C)(=O)=O)n1

[out]
1. > 10 µM
2. > 10 µM
